Below, each of the molecules is paired with its reported IC50 value.
- Test system: HCT-116
- assay.info: cells
- condition.details: Homo sapiens, HCT-116, 72 h
- Description: Antiproliferative activity against human HCT-116 cells assessed as reduction in cell viability measured after 72 hrs

Check out these entries, answers already filled in.
compound	IC50
N#Cc1cccc(-c2cc(NCc3ccc4c(c3)OCO4)nc(N)n2)c1	> 2000 nM
COc1cc(-c2cc(NCc3ccc4c(c3)OCO4)nc(N)n2)cc(OC)c1OC	> 2000 nM
CC(=O)Nc1cccc(-c2cc(NCc3ccc4c(c3)OCO4)nc(N)n2)c1	> 2000 nM

We now examine a further molecule.
-- ask Name the recorded IC50 for Nc1nc(NCc2ccc3c(c2)OCO3)cc(-c2ccc(Oc3ccccc3)cc2)n1 .
-- reply > 2000 nM
